# experiment: Pharmacokinetics and tissue distribution of compounds in rats
# Format: in vivo
# protocolConditions: male, SD; lung; rat, PO 5 mg/kg; read-out: AUC AUClast
Please go through the items and note down their AUC(0-t).
Write the answer as a number in µg·h/mL, unit excluded.

# compound "Cc1cc(Nc2cc(C)[nH]n2)nc(-c2ccc(N3CC4CC(C3)N4Cc3ccc(-n4cc(F)cn4)nc3)nc2)n1" ; its AUC(0-t) = 79.6

# compound CO[C@]1(C(=O)N[C@@H](C)c2ccc(-n3cc(F)cn3)nc2)CC[C@H](c2nc(C)cc(Nc3cc(C)[nH]n3)n2)CC1 [BLU-667, reference compound] ; its AUC(0-t) = 25.1

---

Please go through the items and note down their Kp.
# experiment: Pharmacokinetics and tissue distribution of compounds in rats
# Type: in vivo
# protocolConditions: male, SD; plasma; rat, PO 5 mg/kg; read-out: T/P Ratio of AUClast in tissue to plasma
Output spec: single numeric token, no unit.

# compound Cc1cc(Nc2cc(C)[nH]n2)nc(-c2ccc(N3CC4CC(C3)N4Cc3ccc(-n4cc(F)cn4)nc3)nc2)n1 [Compound 17] ; its Kp = 1

# compound CO[C@]1(C(=O)N[C@@H](C)c2ccc(-n3cc(F)cn3)nc2)CC[C@H](c2nc(C)cc(Nc3cc(C)[nH]n3)n2)CC1 [BLU-667, reference compound] ; its Kp = 1

---

# testTarget: RET-V804M (Homo sapiens, UniProt P07949, V804M)
# Sequence (P07949 29-1114 V804M): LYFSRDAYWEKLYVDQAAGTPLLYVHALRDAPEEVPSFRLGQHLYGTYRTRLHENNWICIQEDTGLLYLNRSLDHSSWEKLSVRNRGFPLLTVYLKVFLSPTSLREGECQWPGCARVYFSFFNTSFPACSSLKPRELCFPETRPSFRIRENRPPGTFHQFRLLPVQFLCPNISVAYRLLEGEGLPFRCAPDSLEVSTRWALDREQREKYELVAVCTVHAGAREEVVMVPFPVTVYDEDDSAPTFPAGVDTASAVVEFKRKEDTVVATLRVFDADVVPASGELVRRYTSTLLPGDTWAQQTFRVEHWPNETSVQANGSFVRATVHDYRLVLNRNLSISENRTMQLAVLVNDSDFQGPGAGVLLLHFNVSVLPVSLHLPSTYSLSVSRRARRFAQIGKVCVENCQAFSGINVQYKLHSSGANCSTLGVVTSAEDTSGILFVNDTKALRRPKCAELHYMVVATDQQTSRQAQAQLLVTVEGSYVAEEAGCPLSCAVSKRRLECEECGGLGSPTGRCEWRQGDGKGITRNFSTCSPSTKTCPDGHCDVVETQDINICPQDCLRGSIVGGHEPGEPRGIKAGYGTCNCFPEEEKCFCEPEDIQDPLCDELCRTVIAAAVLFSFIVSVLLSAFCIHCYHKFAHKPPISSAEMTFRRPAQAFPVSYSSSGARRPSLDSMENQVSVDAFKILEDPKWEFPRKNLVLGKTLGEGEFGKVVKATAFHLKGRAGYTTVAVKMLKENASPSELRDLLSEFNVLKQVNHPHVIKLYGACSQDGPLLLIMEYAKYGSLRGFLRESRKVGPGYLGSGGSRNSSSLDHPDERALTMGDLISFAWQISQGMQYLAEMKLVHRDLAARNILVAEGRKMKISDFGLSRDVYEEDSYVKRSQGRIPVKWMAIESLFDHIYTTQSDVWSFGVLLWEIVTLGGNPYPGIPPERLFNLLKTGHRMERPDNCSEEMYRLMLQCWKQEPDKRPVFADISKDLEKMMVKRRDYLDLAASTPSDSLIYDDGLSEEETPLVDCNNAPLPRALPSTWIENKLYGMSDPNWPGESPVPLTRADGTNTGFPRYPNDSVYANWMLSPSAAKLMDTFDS
# experiment: RET inhibition experiment (HTRF KinEASE-TK kit), mutant RET-V804M
# Type: biochemical
# protocolConditions: read-out: Inhibition rate on RET-V804M
Quick rule for you: inhibition at 0.1 µM at 80% or higher means T, lower means F.

Form field: inhibition at 0.1 µM at least 80%? Entry: Cc1cc(Nc2cc(C)[nH]n2)nc(-c2ccc(N3CC4CC(C3)N4Cc3ccc(C#N)cc3)nc2)n1 [Compound 85]
F

Form field: inhibition at 0.1 µM at least 80%? Entry: Cc1cc(Nc2cc(C)[nH]n2)nc(-c2ccc(N3CC4CC(C3)N4Cc3ccc(C(F)(F)F)cc3)nc2)n1 [Compound 84]
F

Form field: inhibition at 0.1 µM at least 80%? Entry: Cc1cc(Nc2cc(C)[nH]n2)nc(-c2ccc(N3CC4CC(C3)N4Cc3ccccc3)nc2)n1 [Compound 1]
T

Form field: inhibition at 0.1 µM at least 80%? Entry: COc1ccc(C(C)N2C3CC2CN(c2ccc(-c4nc(C)cc(Nc5cc(C)[nH]n5)n4)cn2)C3)cc1 (centres unmarked) [Compound 50]
F

Form field: inhibition at 0.1 µM at least 80%? Entry: COc1ccc(CN2C3CC2CN(c2ccc(-c4nc(C)cc(Nc5cc(C)[nH]n5)n4)cn2)C3)cc1 [Compound 2]
T

---

# testTarget: VEGFR2 (Homo sapiens)
# experiment: VEGFR2 inhibition experiment (HTRF KinEASE-TK kit)
# Assay type: biochemical
# protocolConditions: 30 nM; read-out: Inhibition rate on VEGFR2
# Description: Experimental method: According to the instructions of the HTRF KinEASE-TK kit (Cisbio), the compounds of the present disclosure were tested for their inhibitory effects on the VEGFR2 enzyme activity. After pre-incubation of the VEGFR2 enzyme and different concentrations of test compounds at room temperature for 30 min, a substrate and adenosine triphosphate (ATP) were added to initiate the reaction. […]
Please go through the items and note down their inhibition at 0.03 µM.
Write the answer as a number in %, unit excluded.

# molecule "Cc1cc(Nc2cc(C)[nH]n2)nc(-c2ccc(N3CC4CC(C3)N4Cc3ccc(-c4cscn4)nc3)nc2)n1" ; its inhibition at 0.03 µM = 52

# molecule "Cc1cc(Nc2cc(C)[nH]n2)nc(-c2ccc(N3CC4CC(C3)N4Cc3ccc(-c4ccc[nH]4)nc3)nc2)n1" ; its inhibition at 0.03 µM = 56

# molecule "Cc1cc(Nc2cc(C)[nH]n2)nc(-c2ccc(N3CC4CC(C3)N4Cc3ccc(-c4ccn[nH]4)nc3)nc2)n1" ; its inhibition at 0.03 µM = 31

---

# experiment: Pharmacokinetics and tissue distribution of compounds in rats
# Type: in vivo
# protocolConditions: male, SD; thyroid; rat, PO 5 mg/kg; read-out: Peak concentration Cmax
Please go through the items and note down their Cmax.
Write the answer as a number in ng/mL, unit excluded.

# compound "Cc1cc(Nc2cc(C)[nH]n2)nc(-c2ccc(N3CC4CC(C3)N4Cc3ccc(-n4cc(F)cn4)nc3)nc2)n1" ; its Cmax = 1870

# compound CO[C@]1(C(=O)N[C@@H](C)c2ccc(-n3cc(F)cn3)nc2)CC[C@H](c2nc(C)cc(Nc3cc(C)[nH]n3)n2)CC1 [BLU-667, reference compound] ; its Cmax = 888

---

# testTarget: RET-M918T (Homo sapiens, UniProt P07949, M918T)
# Sequence (P07949 29-1114 M918T): as the sequence (P07949 29-1114 V804M) above, with M776V, M890T counted along it
# experiment: RET inhibition experiment (HTRF KinEASE-TK kit), mutant RET-M918T
# Type: biochemical
# protocolConditions: read-out: The IC50 (nM) for inhibiting the enzyme RET-M918T
# Procedure: Experimental method: […] After incubation at room temperature for 40 min, TK antibody-cryptate and streptavidin-XL665 were added, and the test was performed after incubation at room temperature for 45 min. With the solvent group (DMSO) as the negative control and the buffer group (without RET enzyme) as the blank control, the relative inhibitory activity percentages (i.e., inhibition rates) of different concentrations of the compounds were computed as per the following formula: […] […]
Please go through the items and note down their IC50.
Write the answer as a number in nM, unit excluded.

# molecule "Cc1cc(Nc2cc(C)[nH]n2)nc(-c2ccc(N3CC4CC(C3)N4Cc3ccc(-n4cccn4)nc3)nc2)n1" ; its IC50 = 1.29

# molecule "Cc1cc(Nc2cc(C)[nH]n2)nc(-c2ccc(N3CC4CC(C3)N4Cc3ccc(-n4ncc(F)c4C)nc3)nc2)n1" ; its IC50 = 4.03

# molecule "Cc1cc(Nc2cc(C)[nH]n2)nc(-c2ccc(N3CC4CC(C3)N4Cc3ccc(Cl)cn3)nc2)n1" ; its IC50 = 8.6

# molecule "Cc1cc(Nc2cc(C)[nH]n2)nc(-c2ccc(N3CC4CC(C3)N4Cc3ccc(-n4ccc(C5CC5)n4)nc3)nc2)n1" ; its IC50 = 15.8

# molecule "Cc1cc(Nc2cc(C)[nH]n2)nc(-c2ccc(N3CC4CC(C3)N4Cc3ccc(-n4cc(F)cn4)nc3)nc2)n1" ; its IC50 = 1.47

---

# experiment: Pharmacokinetics and tissue distribution of compounds in rats
# Assay type: in vivo
# protocolConditions: male, SD; thyroid; rat, PO 5 mg/kg; read-out: Time to peak concentration Tmax
measurementName: Tmax (h)
Write the answer as a number in h, unit excluded.

# compound Cc1cc(Nc2cc(C)[nH]n2)nc(-c2ccc(N3CC4CC(C3)N4Cc3ccc(-n4cc(F)cn4)nc3)nc2)n1 [Compound 17] ; its Tmax = 8.49

# compound CO[C@]1(C(=O)N[C@@H](C)c2ccc(-n3cc(F)cn3)nc2)CC[C@H](c2nc(C)cc(Nc3cc(C)[nH]n3)n2)CC1 [BLU-667, reference compound] ; its Tmax = 0.5

---

Please go through the items and note down their inhibition at 0.1 µM.
# testTarget: VEGFR2 (Homo sapiens, UniProt P35968)
# Sequence (P35968 20-1356, species assumed): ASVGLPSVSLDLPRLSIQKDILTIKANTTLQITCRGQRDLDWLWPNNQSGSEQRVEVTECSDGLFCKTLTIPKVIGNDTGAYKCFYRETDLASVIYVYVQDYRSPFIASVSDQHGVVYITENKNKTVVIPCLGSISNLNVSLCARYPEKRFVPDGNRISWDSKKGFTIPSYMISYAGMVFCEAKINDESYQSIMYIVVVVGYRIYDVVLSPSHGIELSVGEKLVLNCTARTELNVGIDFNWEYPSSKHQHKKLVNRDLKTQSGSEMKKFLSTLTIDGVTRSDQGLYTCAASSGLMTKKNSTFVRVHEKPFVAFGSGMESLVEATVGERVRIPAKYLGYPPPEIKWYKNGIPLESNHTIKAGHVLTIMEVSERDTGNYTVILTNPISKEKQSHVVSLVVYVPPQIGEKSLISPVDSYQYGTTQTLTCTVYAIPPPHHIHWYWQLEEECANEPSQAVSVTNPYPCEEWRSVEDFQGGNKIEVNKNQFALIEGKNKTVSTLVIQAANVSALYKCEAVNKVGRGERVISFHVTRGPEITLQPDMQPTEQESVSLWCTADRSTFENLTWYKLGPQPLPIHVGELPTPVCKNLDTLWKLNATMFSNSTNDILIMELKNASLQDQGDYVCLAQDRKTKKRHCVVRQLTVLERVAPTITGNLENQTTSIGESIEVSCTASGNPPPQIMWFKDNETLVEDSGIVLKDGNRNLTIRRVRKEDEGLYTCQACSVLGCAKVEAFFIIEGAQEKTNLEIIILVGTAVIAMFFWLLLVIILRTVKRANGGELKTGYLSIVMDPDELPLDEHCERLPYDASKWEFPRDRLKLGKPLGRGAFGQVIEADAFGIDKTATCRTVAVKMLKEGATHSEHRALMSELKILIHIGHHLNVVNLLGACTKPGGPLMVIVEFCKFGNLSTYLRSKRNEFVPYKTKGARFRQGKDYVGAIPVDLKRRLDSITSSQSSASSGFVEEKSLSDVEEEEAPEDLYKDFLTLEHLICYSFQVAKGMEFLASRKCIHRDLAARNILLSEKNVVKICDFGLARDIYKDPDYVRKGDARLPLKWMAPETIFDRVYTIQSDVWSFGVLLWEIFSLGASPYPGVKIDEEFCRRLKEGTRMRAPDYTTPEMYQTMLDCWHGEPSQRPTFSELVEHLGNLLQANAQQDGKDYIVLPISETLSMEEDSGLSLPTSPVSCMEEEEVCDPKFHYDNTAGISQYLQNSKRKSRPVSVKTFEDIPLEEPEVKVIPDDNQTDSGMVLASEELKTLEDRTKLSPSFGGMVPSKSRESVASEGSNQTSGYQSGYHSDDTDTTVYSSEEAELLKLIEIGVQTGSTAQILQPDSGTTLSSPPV
# experiment: VEGFR2 inhibition experiment (HTRF KinEASE-TK kit)
# Format: biochemical
# protocolConditions: read-out: Inhibition rate on VEGFR2
Write the answer as a number in %, unit excluded.

# compound "COc1ccc(CN2C3CC2CN(c2ccc(-c4nc(C)cc(Nc5cc(C)[nH]n5)n4)cn2)C3)cc1" ; its inhibition at 0.1 µM = 29

# compound "Cc1ccc(CN2C3CC2CN(c2ccc(-c4nc(C)cc(Nc5cc(C)[nH]n5)n4)cn2)C3)cc1" ; its inhibition at 0.1 µM = -10

# compound "COc1ccc(CN2CCN(c3ccc(-c4nc(C)cc(Nc5cc(C)[nH]n5)n4)cn3)CC2)cc1" ; its inhibition at 0.1 µM = -10

# compound "Cc1cc(Nc2cc(C)[nH]n2)nc(-c2ccc(N3CC4CC(C3)N4Cc3ccccc3)nc2)n1" ; its inhibition at 0.1 µM = 38

---

# testTarget: RET-WT (Homo sapiens)
# Sequence (P07949 29-1114): as the sequence (P07949 29-1114 V804M) above, with M776V counted along it
# experiment: RET inhibition experiment (HTRF KinEASE-TK kit), wild-type RET enzyme
# Format: biochemical
# protocolConditions: read-out: The IC50 (nM) for inhibiting RET-WT
measurementName: IC50 (nM)
Write the answer as a number in nM, unit excluded.

# compound "Cc1cc(Nc2cc(C)[nH]n2)nc(-c2ccc(N3CC4CC(C3)N4Cc3ccc(-n4cc(F)cn4)nc3)nc2)n1" ; its IC50 = 1.32

# compound "Cc1cc(Nc2cc(C)[nH]n2)nc(-c2ccc(N3CC4CC(C3)N4Cc3ccc(-n4cccn4)nc3)nc2)n1" ; its IC50 = 2.7

# compound "Cc1cc(Nc2cc(C)[nH]n2)nc(-c2ccc(N3CC4CC(C3)N4Cc3ccc(-n4ccc(C5CC5)n4)nc3)nc2)n1" ; its IC50 = 7.33

# compound "Cc1cc(Nc2cc(C)[nH]n2)nc(-c2ccc(N3CC4CC(C3)N4Cc3ccc(-n4ncc(F)c4C)nc3)nc2)n1" ; its IC50 = 2.35
